Target: Dimer of Gag-Pol polyprotein [489-587] (Human immunodeficiency virus 1, UniProt P12497)
Construct: 489-587
Experiment: Protease Inhibition Assay
Conditions: pH 5; 22 °C
Readout: pKi
Numbers only, as −log10 of the molar value.

pKi for Dimer of Gag-Pol polyprotein [489-587] (Human immunodeficiency virus 1, UniProt P12497) with input O=c1oc2c(c(O)c1[C@H](c1cccc(NS(=O)(=O)c3ccccc3)c1)C1CC1)CCCCCC2 equals 8.52
